Experiment: soluble on expression in E. coli; label from the status in PepcDB or PDB records
property: soluble on expression in E. coli

The cases that follow already have their soluble on expression in E. coli on record.
PRVSLFFFSADTDDHAWDKHALVLECAELADSLGLDAIWVPERHFDPFGAPYPSPGLLLAAIAARTSRIALRSGSVVLPLRDPLLVAEEWGVLDSLSRGRMGISLASGWHADDFVLNPEGYERRKDVLEERLADLHTLWNGASITRKGPGGRPVEVRTYPRPERTPEVWLTSSRNPDTWRTAGRLNLHVLTALLEQTIDEITERVGLYHQALTEAGHPTDGRQVTCMLHTHLASDPASVEQRVRGPLIRYLSAHMDLFSKYAAGGGAGIDPDEVTEADRQALLEHGLRRYMGTSGLFGSAESCLPKVERLGAAGITELGCLVDFGLPREQVLESVEELGRLRVALRETAGAPK; soluble
MSLKVLICDDDKIVRDDIANIAKESGYVDYVKKVKDGIEAIEFIKNEKIDLLIIDIDMPYKNGIDSAEEILSIDKDIHIVFVTGFADYSLESFKVHPIDFVVKPFKKEKILDSINIAIDHINSHKIANNNFIEDTLFVYKIRKQIHMINFDDIVMFEKNSRAINLHTKDEDIIKFYENFDDLKKRLPPNFFMTHRQYIVNLRFIHKVIPINKSSLEIRFINFQENAILNKSLEKDFLYRFYREGHHHHHH; not soluble
MKGRDVVLGLLMQKELSGYDIKIVFEDVFTHFFDGSFGMIYPTLRQLENEGKIKKEVVMQEGKPNKKMYFITDEGREEFYQYMQTPVEKDVLRSDFLMRMYFGNYSDDVTIKKWIKDEIERKEAYIADLRLKYEKWRVGITFVEEISLDVGIASYSAQVETLKKKLEELEAKENNKTEE; soluble
MEPHSLRYNLMVLSQDESVQSGFLAEGHLDGQPFLRYDRQKRRAKPQGQWAEDVLGAETWDTETEDLTENGQDLRRTLTHIKDQKGGLHSLQEIRVCEIHEDSSTRGSRHFYYNGELFLSQNLETQESTVPQSSRAQTLAMNVTNFWKEDAMKTKTHYRAMQADCLQKLQRYLKSGVAIRRTVPPMVNVTCSEVSEGNITVTCRASSFYPRNITLTWRQDGVSLSHNTQQWGDVLPDGNGTYQTWVATRIRQGEEQRFTCYMEHSGNHGTHPVPSGKVLVLQSQRTDFPYVSAAMPCFVIIIILCVPCCKKKTSAAEGP; soluble

Respectfully, I request soluble on expression in E. coli for each entry included below.
1. MTNPLNSTAANRSNQPSSDGISDGQITNEEAESLINKKNCSGHKLKEVTDSDTFSDNGKDDSDTKKRFHYHQDQRRMSLTSIVAVESPSSSNAPSRKTIDLGHGSDLIYIQRFLPFQQSWTFFDYLDKHIPWTRPTIRVFGRSCLQPRDTCYVASSGLTALVYSGYRPTSYSWDDFPPLKEILDAIYKVLPGSRFNSLLLNRYKGASDYVAWHADDEKIYGPTPEIASVSFGCERDFVLKKKKDEESSQGKTGDSGPAKKRLKRSSREDQQSLTLKHGSLLVMRGYTQRDWIHSVPKRAKAEGTRINLTFRLVL
2. MSHGSPAPSASVSSDGEEPEIDVMPSSDEESEPIYIPKEKEPVVIRGVGNITVFGMNSRFNTEYPPELTGYIAPEELSATLSRVNSVLKRHVQTSSRWLLCGLAFCCCSIGCSMWPVLCLNRRTVLALEKCLDHENVSLYHKLGLHWSLARRPTEPSDRLTEYVLELKTLPKPALNLPD
3. MSLKPLFGEKDESNISPITKQLTEEEASKVIAEVNGEQILYKDFYFIYSQQAAYYGLTTEDEDSLSDDTKEILNTIKKELLTQLIQQKLAKQKAKEAGYEVTKERLDEASEAIEEMIRNMAEQMKLSSPSEAESRDFLKEARDFINSELKAMRITMDEYIRDTAEYMIVTDFMEDLTKDIVVTDEEIKKYYDEQLKIQQENPEEAAYAEVQLIQPASSRVKHILIALPEEEQQEYQNLKSEGKDEEAEAYLKEKLEAIKPKAEEVLNKAKNGEDFEALIKEYGEDPGMESEQYKDGYTVTKNSGFIKSFEDASLALGVGEISDLVEGPYGYHIIKVYEKTEAKPYTQEEKKSEIESLLKSQKKTNFMNEKMKEWESASTIVRHDDEGHHHHHH
4. MAVDGLVSEKIKELLKELGKTYKLVVLTADTYGTLEKEFNGLPITVDKIKNEIEKEKAAEKYSPYIGIGNGNNDCLMLEKSELGILIIGEEGASTNALLKSDIVINNIKDAINLLLNEKRIIATL
5. MLSTGLDELVYRSNLIGSDRAVCNWGGGNTSMKTVEKDFRGREIAVMWVKGSGSDLATMGAKNFTGLNLEDIRPLIEREEMSDEEMVEYLGHCMIDRNHPRPSIETLLHAFLPFKHVDHTHPDAIISICCADNGKEIAKNLFGDRFVWVPYVRPGFSLSKLIAEGVQKNPHAELVLMEKHGLVVWGETAKESYDRTISVINEAEAYIRSRINESVIFGGGKLEHHHHHH
6. GPGSDQLKQSAFLVRNDEKVAALIVLLKRVLHVGEAAANSAQALIFSESKFHVEFLQMILTHYSISTSAVHGQMDQEARRLAVRSFAKRETSVMVVTDVAARGLDLPLLDNVVNFSFPFNPKLFVHRVGRVARAGRSGTAYSIMTFEDFPYYVDLMQFIGRPLQSAPVPGDLLFTPDDGCYGRLPEEDIQLELDFLKRLH
7. MSEEVGAKRWYAVHTYSGYENKVKKNLEKRVESMNMTEQIFRVVIPEEEETQVKDGKAKTTVKKTFPGYVLVELIMTDESWYVVRNTPGVTGFVGSAGAGSKPNPLLPEEVRFILKQMGLKEKTIDVELEVGEQVRIKSGPFANQVGEVQEIETDKFKLTVLVDMFGRETPVEVEFDQIEKL
8. MGSDKIHHHHHHMKLRCAIVDDEPLALSLLESYVNKTPFLELAGKYSSAVQAMKELPGNQIDLLFLDIQMPELNGLEFSKMVAPRTRIVFTTAFGQYAIDGYRVNALDYLLKPISYVDFLQAANKALQWFELVQKPEEVDSIFVKSDYKLVQVELKKILYIEGLKDYIKIYTEDAPKPILSLMSMKSMEELLPPARFMRVHRSFIVQKDKIRIIDRGRIVFDKTYIPVSDSYKQTFQTFLDERS

Output:
1. not soluble
2. not soluble
3. soluble
4. not soluble
5. not soluble
6. not soluble
7. not soluble
8. not soluble

###

Experiment: soluble on expression in E. coli; label from the status in PepcDB or PDB records
property: soluble on expression in E. coli

Look over these answered cases.
MSTDIDCIVIGAGVVGLAIARALAAGGHEVLVAEAAEGIGTGTSSRNSEVIHAGIYYPADSLKARLCVRGKHLLYEYCAARGVPHQRLGKLIVATSDAEASQLDSIARRAGANGVDDLQHIDGAAARRLEPALHCTAALVSPSTGIVDSHALMLAYQGDAENDGAQLVFHTPLIAGRVRPEGGFELDFGGAEPMTLSCRVLINAAGLHAPGLARRIEGIPRDSIPPEYLCKGSYFTLAGRAPFSRLIYPVPQHAGLGVHLTLDLGGQAKFGPDTEWIATEDYTLDPRRADVFYAAVRSYWPALPDGALAPGYTGIRPKISGPHEPAADFAISGPASHGVAGLVNLYGIESPGLTASLAIAEETLARLAALEHHHHHH; soluble
MAMTLAEKILAKASGNTQVSPGDIVMAKVETAMVHDITGPLSVNTLKKEGISKVWDNEKIVIPFDHQIPADSINAAENHILMRNFVKEQNIKHFYDIREGVCHQVLPEKGHIVPGTVVVGADSHTCTYGAFGAFATGIGSTDMAAAFATGELWFKVPET; not soluble
MSDTHGKFIWVELMTPDMEAAARFYGHVVGWQTKDFGSPEMPYLVLEADGKGMGGVMELTEEHKGQGIPPNWTAYVDVDDVDATAKLFADKGGAIRRPPQDIPEIGRFAVVADPYGAVLCIMTPLPMETGGFPEDMQEKKGHVGWYELFTDNVDEAMAFYGEVFGWTKDHDFDMGEMGPYRIFAHKGKAVGGIMKRMPQVPVCHWGYYFNVDGIEDAITRVSTGGGKVVNGPMEVPGESWIVNCVDPQGAYFSLVSQKK; not soluble
MARRILVVEAEAPIREMVCFVLEQNGFQPVEAEDYDSAVNQLNEPWPDLILLEWMLPGGSGIQFIKHLKRESMTRDIPVVMLTARGEEEDRVRGLETGADDYITKPFSPKELVARIKAVMRRISPMA; soluble
MINNSFWQGKRVFVTGHTGFKGGWLSLWLQTMGATVKGYSLTAPTVPSLFETARVADGMQSEIGDIRDQNKLLESIREFQPEIVFHMAAQPLVRLSYSEPVETYSTNVMGTVYLLEAIRHVGGVKAVVNITSDKCYDNKEWIWGYRENEAMGGYDPYSNSKGCAELVTSSYRNSFFNPANYGQHGTAVATVRAGNVIGGGDWALDRIVPDILRAFEQSQPVIIRNPHAIRPWQHVLEPLSGYLLLAQKLYTDGAEYAEGWNFGPNDADATPVKNIVEQMVKYWGEGASWQLDGNAHPHEAHYLKLDCSKAKMQLGWHPRWNLNTTLEYIVGWHKNWLSGTDMHEYSITEINNYMNTK; soluble

# batch size: 6; output soluble on expression in E. coli per entry
1. MAVKKIAIFGATGQTGLTTLAQAVQAGYEVTVLVRDSSRLPSEGPRPAHVVVGDVLQAADVDKTVAGQDAVIVLLGTRNDLSPTTVMSEGARNIVAAMKAHGVDKVVACTSAFLLWDPTKVPPRLQAVTDDHIRMHKVLRESGLKYVAVMPPHIGDQPLTGAYTVTLDGRGPSRVISKHDLGHFMLRCLTTDEYDGHSTYPSHQYQ
2. MGSSHHHHHHGGTGENLYFQGGSGKIFSTLGNPGTLAATKPKKGEVVLASPEATVSKYKEAIKQHKKALKELHACTERFTHALAAVAASLQLLTSDTHIPVMVQSSGALASGIEEVQDGVLLQDLMEELDYSLSTRFKQIAEDQRELKESRERKSKAERTLMLLRSQCDKLQLKKDVDAKVQALYLAKTQKRDEHEVECTRLKAEFEDTFQDFTKRFGILVYEDMKGLTVHLHRVLSALSYQVRKCKDNIMAHPITPKPIAEMS
3. MDLNATNYIRGCQSKTYDGKIFPGKGGEKQWICKDTIIHGDTNGACIPPRTQNLCVGELWDKSYGGRSNIKNDTKELLKEKIKNAIHKETELLYEYHDTGTAIISKNDKKGQKGKNDPNGLPKGFCHAVQRSFIDYKNMILGTSVNIYEHIGKLQEDIKKIIEKGTPQQKDKIGGVGSSTENVNAWWKGIEREMWDAVRCAITKINKKNNNSIFNGDECGVSPPTGNDEDQSVSWFKEWGEQFCIERLRYEQNIREACTINGKNEKKCINSKSGQGDKIQGACKRKCEKYKKYISEKKQEWDKQKTKYENKYVGKSASDLLKENYPECISANFDFIFNDNIEYKTYYPYGDYSSICSCEQVK
4. REAFVSIQTSTIPKTAYAAVNFVETQGEDESYTDSLSTDNKRDIYADFAVIEIPLFLTNHRDYQVFNEFIKPAIETYKQLGNSSFEKKQLDQHKNDNFYMLGYPLVESSIDALILNQRRQYNNSYTEKYTPQTLTKDQRTIDLSREVPTLIQNKTENSTGSQLLVNQSLSSTSEGIIE
5. MSERLSITPLGPYIGAQISGADLTRPLSDNQFEQLYHAVLRHQVVFLRDQAITPQQQRALAQRFGELHIHPVYPHAEGVDEIIVLDTHNDNPPDNDNWHTDVTFIETPPAGAILAAKELPSTGGDTLWTSGIAAYEALSVPFRQLLSGLRAEHDFRKSFPEYKYRKTEEEHQRWREAVAKNPPLLHPVVRTHPVSGKQALFVNEGFTTRIVDVSEKESEALLSFLFAHITKPEFQVRWRWQPNDIAIWDNRVTQHYANADYLPQRRIMHRATILGDKPFYRAGLEHHHHHH
6. MARFSSVLIYDGECPYCSVAAKALEQVDDIGAISWYDESAQSFLTAQFDEPPFAMVLVDRPAQQVYAGRAAAEELAGRAGLPDLVGSLVRDNYEKIAHVVGLASGRGREPDDVHERYVLADDAQDRFDTLAKDAVDRDIRADALEHHHHHH

Output:
soluble
not soluble
soluble
soluble
soluble
soluble
